Source of measurements: PubChem BioAssay (NCI)

Assay: NCI Yeast Anticancer Drug Screen. Data for the mlh1 rad18 strain (AID 175)
Details: S. cerevisiae mlh1 rad18 strain growth inhibition; at 5.0 µM (retest, dose inferred, filed as 0.5)
Compounds without any hit were thinned out: in the full panel of roughly 79,000, 15% have a hit. The source made the active and inactive calls. No stated cut-off is given here; in the data, active means growth inhibition above about 70%; inactive means the rest.
Write down the outcome that applies. Available outcomes: 1 for active, -1 for inactive

Q: Write down the call the test reported for this molecule. Item: COc1ccc([N+](=O)[O-])cc1Nc1c2ccccc2nc2ccccc12
A: -1

Q: Next: CCCCCCCCCCCCCCCC[N+](C)(C)C(C)c1ccccc1 (configuration not stated)
A: 1

Q: Next: Cc1ccc(C2=Nc3c(c(C)nn3-c3ccccc3)N=C(C(=O)O)C2)cc1
A: -1

----------
Test: NCI Yeast Anticancer Drug Screen. Data for the sgs1 mgt1 strain (AID 161);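 further: 0% = growth of cultures given vehicle only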
Details: S. cerevisiae sgs1 mgt1 strain, at 50.0 µM (retest, dose inferred, filed as 5.0)
This is part of a sample that, as a whole, favours compounds with a hit. Of some 79,000 tested, about 15% had one in any assay. Activity calls are given as the source filed them. No stated cut-off is given here; in the data, active means growth inhibition above about 70%; inactive means the rest.
Write down the outcome that applies. Available outcomes: active, inactive

Observe how each entry below is paired with its result.
- Cc1ccccc1N=Nc1c(C)nn(C(N)=S)c1-c1ccccc1: active
- CCN(CC)c1ccc(N=Nc2ccc(-c3nc4ccc[n+](C)c4s3)cc2)cc1: active
- C=C(c1ccccc1)[P+](c1ccccc1)(c1ccccc1)c1ccccc1: active

Q: Write down the call the test reported for this compound. Item: CN(C)c1ccc(SC(=S)NCc2ccccc2)cc1
A: active

Q: Next: CCCCCCCCN(CCCCCCCC)C(=O)C(C)O (stereo unspecified)
A: active

Q: Next: O=C1OC2(CCCC2)OC1c1ccccc1 (stereo unspecified)
A: inactive

----------
Assay: NCI Yeast Anticancer Drug Screen. Data for the cln2 rad14 strain (AID 165);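 further: 0% = growth equal to vehicle treated cultures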
Conditions: S. cerevisiae cln2 rad14 strain, at 5.0 µM (retest, dose inferred, filed as 0.5), stronger effect = higher value
This is part of a sample that, as a whole, favours compounds with a hit. Of some 79,000 tested, about 15% had one in any assay.
Provide the recorded growth inhibition for the entries that follow.
Numbers only, in %.

As a guide, the following entries are already answered.
- CN(C)c1ccc(C(c2ccc(N(C)C)cc2)c2cccc([N+](=O)[O-])c2)cc1: -8
- [Pt].c1ccc([PH+](CC[PH+](CC[PH+](c2ccccc2)c2ccccc2)CC[PH+](c2ccccc2)c2ccccc2)c2ccccc2)cc1: 27
- C=C1CC(COc2ccc3c(C)cc(=O)oc3c2)(c2ccccc2)OC1=O (centres undefined): -20

Pending compound:
Q: Requested field: growth inhibition. Item: O=C1CSC(c2ccc(Cl)cc2)N1c1ccc(-c2ccc(-n3c(-c4ccccc4)nc4ccccc4c3=O)cc2)cc1 (centres undefined)
A: -11

----------
Assay: NCI Yeast Anticancer Drug Screen. Data for the sgs1 mgt1 strain (AID 161);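 further: 0% = growth of cultures given vehicle only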
Conditions: S. cerevisiae sgs1 mgt1 strain, at 50.0 µM (retest, dose inferred, filed as 5.0)
Compounds without any hit were thinned out: in the full panel of roughly 79,000, 15% have a hit. The source made the active and inactive calls. Rule as the data show it: active = growth inhibition above about 70%; inactive = the rest.
Write down the outcome that applies. Available outcomes: YES for active, NO for inactive

Q: Write down the call the test reported for this compound. Item: CN(C)/N=C1\CC(c2ccccc2)C(C#N)(C#N)C1(C#N)C#N (stereo not drawn)
A: YES

Q: Next: Cc1nc2ccc(N=Nc3c(O)ccc4ccccc34)cc2[nH]1
A: NO

Q: Next: Fc1cccc(NC(=S)SCc2ccco2)c1
A: YES

Q: Next: Cc1c(N)ccc(O)c1C
A: NO

Q: Next: CCn1c2ccccc2c2ccc(C3C(C(=O)OC)=C(C)NC(C)=C3C(=O)OC)cc21
A: NO

Q: Next: CCCCC1(C(O)CC)Sc2ccccc2N1C (stereo not drawn)
A: YES

Q: Next: CC1SC2=NC3=C(c4ccccc4C3=O)C(c3ccc(Cl)cc3)N2C1=O (stereo not drawn)
A: NO

Q: Next: CN(C)C(=S)Oc1ccc(C(C)(C)C)cc1
A: NO

Q: Next: Cc1ccc(-c2oc(C=Nc3ccccc3)c([N+](=O)[O-])c2-c2ccc(C)cc2)cc1
A: YES

Q: Next: OC(CCN1CCOCC1)(c1cccc(Cl)c1)C1CCCCC1 (stereo not drawn)
A: YES

Q: Next: Cc1ccc(C2=Nc3c(c(C)nn3-c3ccccc3)N=C(C(=O)O)C2)cc1
A: NO

----------
Experiment: NCI Yeast Anticancer Drug Screen. Data for the rad50 strain (AID 155);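 further: 0% = growth of vehicle-only cultures of the same strain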
Conditions: S. cerevisiae rad50 strain growth inhibition; at 50.0 µM
Compounds without any hit were thinned out: in the full panel of roughly 79,000, 15% have a hit. The source made the active and inactive calls. No stated cut-off is given here; in the data, active means growth inhibition above about 70%; inactive means the rest.
Write down the outcome that applies. Available outcomes: T (active), F (inactive)

- CC/C(=C(/CC)c1ccc([O-])cc1)c1ccc([O-])cc1.CC/C(=C(\CC)c1ccc([O-])cc1)c1ccc([O-])cc1.O=C([CH-]C(=O)c1ccccc1)c1ccccc1.O=C([CH-]C(=O)c1ccccc1)c1ccccc1.O=C([CH-]C(=O)c1ccccc1)c1ccccc1.O=C([CH-]C(=O)c1ccccc1)c1ccccc1.[Ti+4].[Ti+4]: T
- CCCCCCCCCCCCCC1OC(=O)C(C)=C1C(=O)O (configuration not stated): T
- C[C@]12C[C@H](c3ccccc3)Nc3ccccc3N1C(c1ccccc1)=NO2: F

Q: Write down the call the test reported for this molecule. Item: Cc1ccccc1N1C(=O)C(=O)c2cccc(C)c21
A: T

Q: Next: C[CH2][Ge]([CH2]C)[CH2]C.C[CH2][Ge]([Cl])[CH2]C.C[CH2][Ge][CH2]C
A: T

Q: Next: CC1CCC(SC2CC(=O)CCC2=O)CC1 (configuration not stated)
A: T

Q: Next: O=C1OC(=O)c2cc([N+](=O)[O-])cc3cccc1c23
A: F

----------
Assay: NCI Yeast Anticancer Drug Screen. Data for the bub3 strain (AID 167)
Conditions: S. cerevisiae bub3 mutant strain, at 5.0 µM (retest, dose inferred, filed as 0.5), stronger effect = higher value
About 79,000 compounds went through this panel and 15% of them were active in at least one assay; those are over-represented in the sample as a whole.
measurement_kind: growth inhibition (%)
Numbers only, in %.

As a guide, the following entries are already answered.
* O=C(O)/C=C/C(=O)Nc1cc2c(cc1Br)-c1ccccc1C2Br (stereo unspecified) | -12
* O=C(Oc1cc([N+](=O)[O-])ccc1Cl)Oc1cc([N+](=O)[O-])ccc1Cl | -9
* COc1cccc2c1C(=O)c1c(O)c3c(c(O)c1C2=O)C[C@@](O)(/C(C)=N/NS(C)(=O)=O)C[C@@H]3OC1CC(N)C(O)C(C)O1 (stereo partly specified) | 12
* Fc1ccc(NC2=NCCN=C(Nc3ccc(F)cc3)SS2)cc1 | 6
* C=CCc1ccc2c(C)cc[n+](C)c2c1O | 1

# map each molecule to its growth inhibition
1. c1ccc2c(c1)oc1cc3c(cc12)CCCN3
2. COc1ccc(CC/C(=N/O)c2ccccc2)cc1
3. O=C(/C=C\C(=O)Nc1cccc(N(Cc2ccccc2)Cc2ccccc2)c1)Nc1cccc(N(Cc2ccccc2)Cc2ccccc2)c1
4. Oc1cccc(/C=C/c2ccncc2)c1
5. CCOP(=O)(OCC)C(NC(=O)OCC(Cl)(Cl)Cl)n1nnc(C(=O)OC)c1C(=O)OC (stereo unspecified)
6. CC(C)c1cc(C(C)C)c(Cl)c(Cl)c1O (tested in a mixture with another compound)

A:
19
1
-2
-6
-1
0

# map each molecule to its growth inhibition
1. CC(C)COP(=O)(OCC(C)C)C(NS(=O)(=O)c1ccccc1)(C(F)(F)F)C(F)(F)F
2. C[n+]1c(/C=C/c2ccc(N3CCCC3)cc2)sc2ccccc21
3. CCCCCCCCCCCCCC/C(=C/OCC[N+](C)(C)C)OC(C)=O (tested in a mixture with another compound)
4. CN1C(=O)c2cccc3cc([N+](=O)[O-])cc(c23)C1=O

A:
1. -6
2. 46
3. 99
4. 3

----------
Assay: NCI Yeast Anticancer Drug Screen. Data for the mec2-1 strain (AID 157)
Details: S. cerevisiae mec2-1 strain, at 5.0 µM (retest, dose inferred, filed as 0.5), stronger effect = higher value
Compounds without any hit were thinned out: in the full panel of roughly 79,000, 15% have a hit.
measurement_kind: growth inhibition (%)
Numbers only, in %.

As a guide, the following entries are already answered.
* O=C(c1ccccc1)c1ccc(Br)cc1O | -9
* CC(C)c1ccc2c(c1)CCC1C(C)(C(=O)O)CCCC21C (stereo unspecified) | 8
* CN1CCN=C1c1ccc(NC(=O)Nc2ccc(NC(=O)Nc3ccc(C4=NCCN4C)cc3)cc2)cc1 | -15
* COc1ccc(/C=C/C(C(=O)O)C(=O)O)cc1 | -20
* S=C1C(=Nc2ccccc2)N(c2ccccc2)/C(=N\c2cccc[n+]2Cc2ccccc2)N1c1ccccc1 | -10
* OC(c1ccc(Cl)cc1)c1ccc(Cl)cc1 | -11

# map each molecule to its growth inhibition
1. CCOC(CCl)Oc1c(C(C)C)cc(C(C)C)c(Cl)c1C (stereo unspecified)
2. N#CN=[N+]([O-])c1ccc(C(=O)O)cc1
3. S=C(NCCc1ccccn1)N/N=C/c1ccccn1

A:
1. -1
2. 87
3. -1
